Tested on: A549 NSCLC
procedure summary: NCI tumour cell line growth inhibition, 48 h; in the data active = GI50 below about 0.43 µM; inactive = the rest
Would you mind answering with one of these outcomes? active, inactive

Which outcome was entered for the compound C=CC1=C[C@@H]2[C@@H]3O[C@]4(CC[C@H](O4)[C@@H](C)C[C@@H](O)C3=O)C[C@H](O)C3=NCC[C@@]32CC1 in this test?
active

Which outcome was entered for the compound Cc1nc2cnc3cc(F)c(-c4ccc(Oc5ncccn5)cc4Cl)cc3c2n1[C@H]1CCN(C(=O)CO)C[C@@H]1F in this test?
inactive

Now let's try a different one.
Which outcome was entered for the compound Cn1ccc2c(c1=O)C(=O)c1nccc3c1c-2nc1ccccc13 in this test?
inactive

###

System: MCF7 breast
procedure summary: NCI tumour cell line growth inhibition, 48 h
Where a SMILES comes first, the peptide text is derived from it. The star is where a group is joined. Cbz = O=C(OCc1ccccc1)*; Boc = CC(C)(C)OC(=O)*; Bn = c1ccc(C*)cc1
experimental endpoint: TGI

# example entries with known answers
For the molecule N#CCCSC1SC(=C2SC3=C(SCCS3)S2)SC1SCCC#N (stereo not given) , give its reported TGI.
> 100 µM

For the molecule C=CC(C)(C)C(=C)C(=O)N(C)c1ccccc1I , give its reported TGI.
> 100 µM

For the molecule O=C(N/N=C/c1ccc([N+](=O)[O-])cc1)c1cccc2nc3ccccc3nc12 , give its reported TGI.
> 100 µM

For the molecule CC(C)(C)OC(=O)NC(Cc1ccc(OCc2ccccc2)cc1)C(=O)NC(CCCCNC(=O)OCc1ccccc1)C(=O)O (stereo not given) (Boc-Tyr(Bn)-Lys(Cbz)-OH; configuration not given here) , give its reported TGI.
> 100 µM

For the molecule Cc1cc(C)nc(NC(=S)Nc2ccccc2Cl)c1 , give its reported TGI.
> 100 µM

For the molecule CS(=O)(=O)c1ccc(-c2cnc(N)c(C(=O)Nc3ccccc3)n2)cc1 , give its reported TGI.
> 100 µM

For the molecule N=c1c2c(-c3ccccc3)c(-c3ccccc3)n(Cc3ccccc3)c2ncn1CCCO , give its reported TGI.
2.07 µM

For the molecule c1ccc(-c2cs[s+]c2)cc1 , give its reported TGI.
> 100 µM

For the molecule O=C(Cn1cc(F)c(=O)[nH]c1=O)C12CC3CC(CC(C3)C1)C2 , give its reported TGI.
> 100 µM

Here's the next entry for you.
For the molecule COc1ccc(C/C(C)=C(\c2ccc(OCCN3CCOCC3)cc2)c2ccc(OC(=O)Cc3ccccc3)cc2)cc1 , give its reported TGI.
1.54 µM

###

Test system: TK-10 renal
procedure summary: NCI tumour cell line growth inhibition, 48 h
experimental endpoint: TGI

# example entries with known answers
For TK-10 renal, give TGI of the listed compound: c1ccc(-c2cs[s+]c2)cc1
> 100 µM

For TK-10 renal, give TGI of the listed compound: CC1=C(C(=O)Nc2cccc(Cl)c2)C(c2ccc([N+](=O)[O-])cc2)C(C(=O)Nc2cccc(Cl)c2)=C(C)N1
> 100 µM

For TK-10 renal, give TGI of the listed compound: CN(C)CCCNc1ncnc2nc[nH]c12
> 100 µM

Below is a list of compounds. For each, state its recorded TGI.
1. NC1CC(N)c2c(Br)sc(Br)c21 (stereo not given)
2. COC1(O)C(=O)c2ccccc2OC1(OC)c1ccccc1 (stereo not given)
3. Cc1cc(C)nc(NC(=S)Nc2ccccc2Cl)c1
4. COc1cc2nc(-c3cccs3)nc(N3C(c4ccc(O)cc4)=NNC(=O)c4ccccc43)c2cc1OC
5. CCN(CC)c1ccc(C2SCC(=O)N2c2ccc(NC(=O)c3ccc(N4C(=O)CSC4c4ccc(N(CC)CC)cc4)cc3)cc2)cc1 (stereo not given)
6. Cc1cc(C)c2c(c1)Nc1ccccc1P2c1ccccc1 (stereo not given)
7. CN(c1ccc(NC(=O)Nc2ccc(OC(F)(F)F)cc2)cc1)c1ccnc(Nc2cccc(S(N)(=O)=O)c2)n1
8. COC(=O)C12OC(C)(C(CC(=O)OC(C)(C)C)C1=O)C1C(=O)N(c3ccccc3)C(=O)C12 (stereo not given)

["> 100 µM", "> 100 µM", "> 100 µM", "70.5 µM", "> 100 µM", "> 100 µM", "13 µM", "> 100 µM"]

Below is a list of compounds. For each, state its recorded TGI.
1. Cc1nn(C(=O)c2ccncc2)c2c1C(c1ccc(Cl)cc1)SC(N)=N2 (stereo not given)
2. C=C1CC2(C[C@@H](c3ccccc3)O[C@@H](c3ccccc3)C2)OC1=O (stereo not given in full)
3. CCCCn1cnnc1NS(=O)(=O)c1cc(C)c(Cl)cc1SCC(=O)O
4. C=CC1=C[C@@H]2[C@@H]3O[C@]4(CC[C@H](O4)[C@@H](C)C[C@@H](O)C3=O)C[C@H](O)C3=NCC[C@@]32CC1
5. COc1ccc(C2C(=O)C(Cl)N2Nc2nc(C)cc(=O)[nH]2)cc1OC (stereo not given)
6. O=C1OC(CC(=O)c2ccc(Cl)cc2Cl)C(Cl)=C1Cl (stereo not given)

1: > 10 µM; 2: 3.89 µM; 3: > 10 µM; 4: 0.00385 µM; 5: > 100 µM; 6: > 79 µM

###

For each of the compounds below, state its TGI.
System: CCRF-CEM leukemia
procedure summary: NCI tumour cell line growth inhibition, 48 h

For the compound Cc1nc2cnc3cc(F)c(-c4ccc(Oc5ncccn5)cc4Cl)cc3c2n1[C@H]1CCN(C(=O)CO)C[C@@H]1F , give its reported TGI.
> 76.8 µM

Below is a list of compounds. For each, state its recorded TGI.
1. CC(=O)Nc1ccccc1C=C1c2ccccc2-c2ccccc21
2. CN(c1ccc(NC(=O)Nc2ccc(OC(F)(F)F)cc2)cc1)c1ccnc(Nc2cccc(S(N)(=O)=O)c2)n1
3. CN(C)CCNC(=O)c1ccc(C(=O)NCCN(C)C)c2nc3ccccc3cc12
4. Cc1nc2sc(C(=O)Nc3cccc4ccccc34)c(N)c2cc1C(=O)/C=C/c1ccccc1
5. O=C1CCCCC1=C(I)I
6. O=C1NC(=S)NC(=O)C1C(c1ccc([N+](=O)[O-])cc1)C1C(=O)NC(=S)NC1=O
7. OCC1OC(NCCNCCNC2OC(CO)C(O)C(O)C2O)C(O)C(O)C1O (stereo not given)

["> 100 µM", "25 µM", "10.2 µM", "> 24.9 µM", "73.3 µM", "> 100 µM", "> 100 µM"]

###

Test system: CAKI-1 renal
procedure summary: NCI tumour cell line growth inhibition, 48 h
experimental endpoint: TGI (µM)
Answers are plain numbers, in µM.

# example entries with known answers
For the compound COc1ccc(C/C(C)=C(\c2ccc(OCCN3CCOCC3)cc2)c2ccc(OC(=O)Cc3ccccc3)cc2)cc1 , give its reported TGI.
2.13

For the compound C(=Nc1ccc(-c2cc(-c3ccccc3)nc3ccc4ccccc4c23)cc1)c1ccccc1 , give its reported TGI.
75.4

Here's the next entry for you.
For the compound C=CCNCCCN1C(=O)c2ccc3c4c(ccc(c24)C1=O)C(=O)N(CCCNCC=C)C3=O , give its reported TGI.
1.97

###

For each of the molecules below, state its TGI.
Test system: NCI-H226 lung
procedure summary: NCI tumour cell line growth inhibition, 48 h
One number for each entry, in µM.

# example entries with known answers
For NCI-H226 lung, give TGI of the listed molecule: CCOP(=O)(OCC)/C(C#N)=C/c1ccc(-c2ccc(F)cc2F)o1
36

For NCI-H226 lung, give TGI of the listed molecule: N#Cc1c(-c2ccc(Cl)cc2)c(C#N)c(=O)n(NS(=O)(=O)c2ccccc2)c1S
77.1

For NCI-H226 lung, give TGI of the listed molecule: COc1ccc2c(c1)c(-c1nc(-c3c[nH]c4ncccc34)cs1)cn2CCCCN1CCOCC1
9.91

For NCI-H226 lung, give TGI of the listed molecule: COc1cc2nc(-c3cccs3)nc(N3C(c4ccc(O)cc4)=NNC(=O)c4ccccc43)c2cc1OC
41.4

For NCI-H226 lung, give TGI of the listed molecule: C=C(C(=O)O)C1CCC(CC/C=C(\C)CC/C=C(\C)CCC=C(C)C)CO1 (stereo not given)
13.1

Below is a list of molecules. For each, state its recorded TGI.
1. COc1ccc(-c2cc(-c3ccccc3)nc(N3CCN(CCNc4ccnc5cc(Cl)ccc45)CC3)n2)cc1
2. CCN(CCNc1ccc(C)c2sc3cc(Cl)ccc3c(=O)c12)CC(C)O (stereo not given)
3. CN(C)c1ccc(-c2cc(-c3ccc(Nc4nc(Nc5ccccc5)nc(Nc5ccc(Cl)cc5)n4)cc3)nc(N)n2)cc1

1. 25.1
2. 4.72
3. 98.7

###

Test system: SNB-75 CNS
procedure summary: NCI tumour cell line growth inhibition, 48 h
experimental endpoint: TGI

# example entries with known answers
For the molecule O=C1c2cc3c(cc2CC12Cc1cc4c(cc1C2=O)CCC4)CCC3 , give its reported TGI.
> 100 µM

For the molecule COc1cc2c3c(n(CCCNCC(OC)OC)c(=O)c2cc1OC)-c1cc2c(cc1C3=O)OCO2 , give its reported TGI.
> 59.1 µM

For the molecule COc1cc(/C=C/C(=O)OC2C(O)C3CC(OC(=O)c4cc(OC)c(OC)c(OC)c4)CC2N3C)cc(OC)c1OC (stereo not drawn) , give its reported TGI.
> 50 µM

For the molecule COc1ccc(-c2cc(-c3ccc(Nc4ccnc5cc(Cl)ccc45)cc3)nc(N)c2C#N)cc1 , give its reported TGI.
> 100 µM

For the molecule O=c1c2cc(Br)ccc2nc(-c2ccccc2Cl)n1NCC1(O)OCC(O)C(O)C1O (stereo not drawn) , give its reported TGI.
> 100 µM

For the molecule N#Cc1c(-c2ccc(Cl)cc2)c(C#N)c(=O)n(NS(=O)(=O)c2ccccc2)c1S , give its reported TGI.
> 100 µM

For the molecule COc1cc(C[C@H]2C(=O)OC[C@@H]2Cc2ccc(OC)c(OC)c2)cc(OC)c1 , give its reported TGI.
> 100 µM

For the molecule C/C(=C\c1ccn(-c2ccc(N)c(F)c2)n1)[C@@H]1C[C@@H]2O[C@]2(C)CCC[C@H](C)[C@H](O)[C@@H](C)C(=O)C(C)(C)[C@@H](O)CC(=O)O1 , give its reported TGI.
0.0725 µM

For the molecule CN(CC(=O)O)c1ccc(/C=C/c2ccnc3ccccc23)cc1 , give its reported TGI.
86.8 µM

For the molecule CCO[C@@H]1CCC(S(=O)c2ccc(C)cc2)=CO1 (stereo partly drawn) , give its reported TGI.
> 100 µM

Below is a list of molecules. For each, state its recorded TGI.
1. CCOC(=O)C1=C(NNC(=O)Cc2ccccc2)CSC1=Nc1ccccc1
2. C=C(C(=O)O)C1CCC(CC/C=C(\C)CC/C=C(\C)CCC=C(C)C)CO1 (stereo not drawn)
3. N=c1c2c(-c3ccccc3)c(-c3ccccc3)n(Cc3ccccc3)c2ncn1CCCO

1. > 100 µM
2. > 100 µM
3. 8.43 µM

Below is a list of molecules. For each, state its recorded TGI.
1. COc1ccc(N=Nc2ccc3oc(=O)c(C(=O)Nc4ccccc4)cc3c2)cc1
2. O=C1OC(CC(=O)c2ccc(Cl)cc2Cl)C(Cl)=C1Cl (stereo not drawn)
3. Cn1ccnc1C(=O)/C=C/c1ccc(CC(=O)Nc2ccc(S(F)(F)(F)(F)F)cc2)cc1

> 10 µM
> 61.1 µM
3.88 µM
